Listing of entries alongside the reported IC50.
# systemName: LRRK2 G2019S (Homo sapiens, UniProt Q5S007, G2019S)
# Sequence (Q5S007 whole entry G2019S): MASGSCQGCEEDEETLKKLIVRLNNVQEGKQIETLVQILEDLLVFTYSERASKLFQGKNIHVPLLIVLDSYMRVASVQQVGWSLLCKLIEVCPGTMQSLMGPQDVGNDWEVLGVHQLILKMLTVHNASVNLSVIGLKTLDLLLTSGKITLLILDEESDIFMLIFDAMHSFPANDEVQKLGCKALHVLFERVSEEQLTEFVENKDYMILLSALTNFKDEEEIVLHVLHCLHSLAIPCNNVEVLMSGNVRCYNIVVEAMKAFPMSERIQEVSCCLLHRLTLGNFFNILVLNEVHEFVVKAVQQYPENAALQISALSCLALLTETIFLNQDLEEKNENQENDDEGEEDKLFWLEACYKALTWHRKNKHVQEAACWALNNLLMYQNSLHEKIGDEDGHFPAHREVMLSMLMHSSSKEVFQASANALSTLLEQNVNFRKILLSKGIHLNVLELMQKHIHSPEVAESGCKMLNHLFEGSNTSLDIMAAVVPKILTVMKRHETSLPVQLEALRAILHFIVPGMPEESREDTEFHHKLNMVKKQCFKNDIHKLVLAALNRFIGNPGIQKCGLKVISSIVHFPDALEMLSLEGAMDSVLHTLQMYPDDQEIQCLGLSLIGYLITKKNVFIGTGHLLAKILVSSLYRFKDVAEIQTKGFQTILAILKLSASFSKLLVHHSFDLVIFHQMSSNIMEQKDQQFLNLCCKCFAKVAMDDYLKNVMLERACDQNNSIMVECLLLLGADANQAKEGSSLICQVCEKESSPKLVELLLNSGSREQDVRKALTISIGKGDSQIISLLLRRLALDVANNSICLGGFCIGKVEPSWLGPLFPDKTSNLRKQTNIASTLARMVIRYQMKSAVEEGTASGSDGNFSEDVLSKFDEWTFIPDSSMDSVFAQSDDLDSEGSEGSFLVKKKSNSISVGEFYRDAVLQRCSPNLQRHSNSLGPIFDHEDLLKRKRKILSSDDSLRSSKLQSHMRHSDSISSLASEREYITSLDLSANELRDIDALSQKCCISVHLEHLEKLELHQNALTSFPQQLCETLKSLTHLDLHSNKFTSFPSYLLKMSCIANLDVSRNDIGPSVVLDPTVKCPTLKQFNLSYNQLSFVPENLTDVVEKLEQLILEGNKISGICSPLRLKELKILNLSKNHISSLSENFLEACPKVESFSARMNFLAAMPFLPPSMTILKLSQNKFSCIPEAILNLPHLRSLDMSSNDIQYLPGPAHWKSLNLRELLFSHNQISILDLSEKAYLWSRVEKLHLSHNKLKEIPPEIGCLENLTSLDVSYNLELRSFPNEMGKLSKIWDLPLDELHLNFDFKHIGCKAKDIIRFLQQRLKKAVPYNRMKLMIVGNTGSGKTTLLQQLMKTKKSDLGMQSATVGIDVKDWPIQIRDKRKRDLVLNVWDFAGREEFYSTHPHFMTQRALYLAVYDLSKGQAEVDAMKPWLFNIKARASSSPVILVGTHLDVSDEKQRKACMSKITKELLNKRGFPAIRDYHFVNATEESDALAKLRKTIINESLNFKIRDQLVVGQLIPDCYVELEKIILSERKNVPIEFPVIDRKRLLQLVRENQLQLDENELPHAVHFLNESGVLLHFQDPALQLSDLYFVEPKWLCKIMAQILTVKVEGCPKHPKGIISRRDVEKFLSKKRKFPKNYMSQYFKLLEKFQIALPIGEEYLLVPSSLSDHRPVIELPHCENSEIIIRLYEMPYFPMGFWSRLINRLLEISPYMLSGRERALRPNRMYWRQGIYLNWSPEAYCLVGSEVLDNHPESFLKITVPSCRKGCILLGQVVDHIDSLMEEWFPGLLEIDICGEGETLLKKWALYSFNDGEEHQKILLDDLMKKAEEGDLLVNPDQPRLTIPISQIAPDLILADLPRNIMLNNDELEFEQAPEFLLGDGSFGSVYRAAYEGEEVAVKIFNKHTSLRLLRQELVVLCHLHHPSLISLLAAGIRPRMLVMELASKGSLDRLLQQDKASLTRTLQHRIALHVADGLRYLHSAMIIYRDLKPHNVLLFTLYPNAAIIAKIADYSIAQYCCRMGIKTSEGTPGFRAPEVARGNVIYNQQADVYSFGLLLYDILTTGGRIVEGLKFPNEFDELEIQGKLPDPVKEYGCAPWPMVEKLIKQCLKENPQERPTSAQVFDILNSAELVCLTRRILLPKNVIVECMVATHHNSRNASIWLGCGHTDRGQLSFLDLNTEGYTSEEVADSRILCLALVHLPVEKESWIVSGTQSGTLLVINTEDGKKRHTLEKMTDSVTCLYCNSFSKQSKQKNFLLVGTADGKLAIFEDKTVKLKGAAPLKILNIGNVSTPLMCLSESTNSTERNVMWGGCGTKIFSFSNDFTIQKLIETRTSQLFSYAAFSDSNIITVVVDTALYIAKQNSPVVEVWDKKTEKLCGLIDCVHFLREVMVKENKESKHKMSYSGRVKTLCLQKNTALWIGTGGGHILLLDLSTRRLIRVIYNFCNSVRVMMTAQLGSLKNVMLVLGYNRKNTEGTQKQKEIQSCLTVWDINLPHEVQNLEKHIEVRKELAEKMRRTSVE
# assayOverview: TR-FRET cellular assay for LRRK2 Ser935 phosphorylation, HEK293T cells, BacMam LRRK2-GFP G2019S
# Design: This high-throughput assay utilizes cells expressing full-length human LRRK2 with a C-terminal GFP tag (LRRK2-GFP); host or cells: HEK293T cells transduced with BacMam
# conditionDetails: +/- SD, three independent experiments, * = partial inhibition, read-out: IC50, TR-FRET cell-based assay for Ser935 phosphorylation of LRRK2
Hi! Could you send only the number? It should be in nM, unit omitted.

                            substancesmiles                                systemname  readoutnumber
0  COc1cc(C(=O)N2CCC(N3CCN(C)CC3)CC2)ccc1Nc1ncc2c(n1)N(C)c1ccccc1C(=O)N2C  LRRK2 G2019S (Homo sapiens, UniProt Q5S007, G2019S)             60
1  O=Nc1c(-c2c(O)[nH]c3ccccc23)[nH]c2ccccc12  LRRK2 G2019S (Homo sapiens, UniProt Q5S007, G2019S)           2780
2  Cc1cncc2cccc(S(=O)(=O)N3CCCNC[C@@H]3C)c12  LRRK2 G2019S (Homo sapiens, UniProt Q5S007, G2019S)           1380

Challenge: Which IC50 value belongs to `O=C1Nc2ccc(I)cc2/C1=C/c1cc(Br)c(O)c(Br)c1` ?
Response given: 280

---

# systemName: LRRK2 G2019S (Homo sapiens, UniProt Q5S007, G2019S)
# assayOverview: TR-FRET cellular assay for LRRK2 Ser935 phosphorylation, U-2 OS cells, BacMam LRRK2-GFP G2019S
# Assay type: cell-based
# Set-up: This high-throughput assay utilizes cells expressing full-length human LRRK2 with a C-terminal GFP tag (LRRK2-GFP); host or cells: U-2 OS, SH-SY5Y, HEK293T cells or human neural stem cells transduced with BacMam
# conditionDetails: 20% BacMam G2019S, 90 min, Figure 2B, read-out: IC50, inhibition of TR-FRET signal (Ser935 phosphorylation)
quantityMeasured: IC50
Reply with a number, then the unit it belongs to.

Challenge: Which IC50 value belongs to `COc1cc(C(=O)N2CCC(N3CCN(C)CC3)CC2)ccc1Nc1ncc2c(n1)N(C)c1ccccc1C(=O)N2C` ?
Response given: 30 nM

---

Entries below carry reported IC50 on SH-SY5Y cells expressing LRRK2-GFP G2019S.
Hi! Could you send only the number? It should be in µM, unit omitted.

Solved cases below.
>>> df
                                   compound  quantitymeasured  readingunit  readoutnumber
0  CCc1ccc(OCc2ccccc2C(=O)Nc2ccc3nc(C)cc(N)c3c2)cc1 [JTC 801]              IC50           µM             10
1  [O-][S+](c1ccccc1)c1ccc2nnnn2n1 (stereo not shown) [Ro 106-9920]              IC50           µM             20

Field: next compound
Challenge: Which IC50 value belongs to O=C1C(Cl)=C(NCCN2CCOCC2)C(=O)c2ncccc21 [NSC 663284] ?
Response given: 2
